Just for reference, paper PMC9482650 is where these values come from.

The reader will find reported pKd values listed item by item below.
target: SCRIB_3, Q14160; test: holdup assay; set-up: key: below the threshold = too weak to quantify, mostly under pKd 3.1 to 4; conditions: plain residues with an end cap or a label only (N-terminal biotin on a linker: ado-ado)
Sequence (Q14160 999-1103): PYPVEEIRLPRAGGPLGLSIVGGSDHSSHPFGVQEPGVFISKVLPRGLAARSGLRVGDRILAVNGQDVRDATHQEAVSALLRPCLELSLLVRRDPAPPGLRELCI
measurement_type: pKd

| binder | measurement_type | numeric_readout |
| --- | --- | --- |
| PSVGSKKTVL [REELD1, A0A1B0GV85] | pKd | 3.6 |
| SVTSERETNI [SLC16A7, O60669] | pKd | 4.93 |
| GEDRSPPTAL [MKNK1, Q9BUB5] | pKd | 4.57 |
| DGVNEKVSCV [HTR2A, P28223] | pKd | 3.97 |
| LKDDELKTKL [SLCO1A2, P46721] | pKd | 3.73 |
| DTKNYKQTSV [CRIPT, Q9P021] | pKd | 4.98 |
| DPAESMESLV [PTPRG, P23470] | pKd | 3.92 |
| MQHQRTHTRV [ZSCAN30, Q86W11] | pKd | 3.51 |
| NTLNRKTTPV [CACNG8, Q8WXS5] | pKd | 3.88 |
| DFLSTFHIRI [CIB2, O75838] | pKd | 3.56 |
